- assayed system: D3 (Homo sapiens, UniProt P35462)
- Sequence (P35462 whole entry): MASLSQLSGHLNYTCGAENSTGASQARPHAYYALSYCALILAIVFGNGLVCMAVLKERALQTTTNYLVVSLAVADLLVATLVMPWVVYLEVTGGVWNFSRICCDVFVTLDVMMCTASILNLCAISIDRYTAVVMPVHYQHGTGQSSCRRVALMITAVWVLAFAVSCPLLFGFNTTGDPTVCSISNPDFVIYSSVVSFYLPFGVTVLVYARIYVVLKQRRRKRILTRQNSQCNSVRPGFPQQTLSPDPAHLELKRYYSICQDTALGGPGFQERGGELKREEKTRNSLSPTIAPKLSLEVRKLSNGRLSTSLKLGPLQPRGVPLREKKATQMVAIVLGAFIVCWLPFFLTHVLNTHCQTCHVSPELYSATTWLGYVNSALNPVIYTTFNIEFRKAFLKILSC
property name: Kd

State, for D3 (Homo sapiens, UniProt P35462), measured Kd of the molecule listed here: COc1cc(C(C)=O)ccc1OCCCN1CCC(c2noc3cc(F)ccc23)CC1 [Iloperidone]
< 10 nM
